Tested on: A549 NSCLC
assay details: NCI tumour cell line growth inhibition, 48 h
endpoint name: GI50

1. COc1cc2c(cc1OCCCCCOc1cc3c(cc1OC)C(=O)N1CC(F)C[C@H]1C=N3)N=C[C@@H]1CC(F)CN1C2=O (stereo partly drawn)    0.158 µM
2. CC(=O)N1N=C(c2ccc(Nc3nc(Nc4ccc(Cl)cc4)nc(Nc4ccc(Cl)cc4)n3)cc2)CC1c1ccc([N+](=O)[O-])cc1 (stereo not drawn)    5.57 µM
3. COC(=O)C1=C(C)NC(C)=C(C(=O)OC)C1/C=C(\Cl)c1ccc(Cl)c(Cl)c1    11.9 µM
4. N#C/C(=N\Nc1ccc(Cl)cc1)C(=O)Nc1cc(-c2ccccc2)nn1-c1ccccc1    3.2 µM
5. N#Cc1ncc(-c2ccc(C(F)(F)F)cc2)c(NCc2cc(C(F)(F)F)cc(C(F)(F)F)c2)n1    3.11 µM
6. Nc1ccccc1-c1ccc([N+](=O)[O-])cc1    4.65 µM
7. Oc1ccc(CN2CCC(N3CCOCC3)CC2)c2cccnc12    > 100 µM
8. COc1cc2cc(C(=O)CCC(=O)O)sc2cc1OC    > 100 µM
9. COc1cccc(C2C3=C(COC3=O)N(CCO)c3cc(OC)ccc32)c1 (stereo not drawn)    0.12 µM
10. COc1cc(C(=O)N2N=C(c3ccc(S(C)(=O)=O)cc3)CC2c2ccco2)cc(OC)c1OC (stereo not drawn)    6.92 µM
11. CCCc1cc(O)c2c3c(c(=O)oc2c1)CN(C)CC3    > 100 µM
12. O=c1c2ccccc2c(Br)c(Br)c2ccccc12    20.6 µM
13. CCOc1ccc(-c2cnnn2-c2nonc2-n2cccc2)cc1    0.388 µM
14. CCC[CH2][Sn]([CH2]CCC)([O]C(=O)c1cc(F)ccc1F)[O][Sn]([CH2]CCC)([CH2]CCC)[O]C(=O)c1cc(F)ccc1F    1.77 µM
15. CC(=O)O[C@@]12CO[C@@H]1C[C@H](O)[C@@]1(C)C(=O)[C@H](O)C3=C(C)[C@@H](OC(=O)[C@H](O)[C@@H](NC(=O)OC(C)(C)C)c4ccccc4)C[C@@](O)([C@@H](OC(=O)c4ccccc4)[C@H]21)C3(C)C    0.00454 µM
16. COc1ccc(-n2cc(-c3cc(OC)c(OC)c(OC)c3)nc2SCc2ccccc2)cc1    79.6 µM
17. O=C(Nc1ccc(F)cc1)Nc1ccccc1CNc1nc(Nc2ccc(OCCN3CCCC3)cc2)ncc1Cl    2.72 µM
18. Cc1ccc(NC(=O)Cc2ccc(/C=C/C(=O)c3ncc[nH]3)cc2)cc1    9.14 µM

meta.source: PubChem BioAssay (NCI)
